src = patent US9163003B2

molecular target: human tankyrase 1 PARP catalytic domain, TNKS1P (GST-tagged) (Homo sapiens (Human), UniProt O95271)
Sequence (O95271 1112-1317): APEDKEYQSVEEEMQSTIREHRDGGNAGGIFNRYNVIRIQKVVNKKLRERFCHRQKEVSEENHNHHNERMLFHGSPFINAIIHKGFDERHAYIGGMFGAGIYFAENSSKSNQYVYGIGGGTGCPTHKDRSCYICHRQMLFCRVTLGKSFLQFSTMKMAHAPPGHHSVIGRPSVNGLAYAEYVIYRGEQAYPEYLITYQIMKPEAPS
pIC50: −log10 of the molar value.
Quick rule for you: pIC50 at 7 or higher means 1.0, lower means 0.0.

Solved entries (count: 3):
COc1ccc(C(=O)C2CCN([C@H]3CCN(Cc4nc5ccccc(=O)c5[nH]4)C3=O)CC2)cc1C    1.0
O=C(c1ccc(F)cc1)C1CCN(C2CCN(Cc3nc4c(c(=O)[nH]3)COCC4)C2=O)CC1 (stereo not shown)    1.0
COc1ccc(C(=O)C2CCN(C3CCN(Cc4nc5c(c(=O)[nH]4)COCC5)C3=O)CC2)cc1 (stereo not shown)    1.0

Would you say "COc1ccc(C(=O)C2CCN([C@H]3CCN(Cc4nc5ccccc(=O)c5[nH]4)C3=O)CC2)cc1" shows pIC50 at minimum 7?
1.0

Hello, I need to know if COc1ccc(C(=O)C2CCN(C3CCN(Cc4nc5c(cnn5C)c(=O)[nH]4)C3=O)CC2)cc1 (stereo not shown) has measured pIC50 not below 7. Thanks!
1.0

----------
Assay system Human PARP1 (Homo sapiens (Human), UniProt P09874); read-out recorded as IC50.
Could you give me the number in µM? Just the number is fine.

Below are worked cases with known answers.
COc1ccc(C(=O)C2CCN([C@H]3CCN(Cc4nc5c(c(=O)[nH]4)COCC5)C3=O)CC2)cc1C    24
COc1ccc(C(=O)C2CCN(C3CCN(Cc4nc5c(c(=O)[nH]4)COCC5)C3=O)CC2)cc1 (stereo not drawn)    9.3

Kindly review the next compound as well.
State, in one line, measured IC50 of COc1ccc(C(=O)C2CCN(C3CCN(Cc4nc5c(c(=O)[nH]4)CCC5)C3=O)CC2)cc1 (stereo not drawn)
29.6

----------
test system: Non-small lung cancer ABC-1 cells; assay: Cellular proliferation assay, ABC-1 cells (CellTiter-Glo); type: cell-based; details: Homo sapiens, 72 h, 3 days of compound treatment
Each entry below carries its reported IC50.
Value expressed in nM; do not type the unit.

Solved entries (count: 6):
CCc1cc(=O)[nH]c(CN2CCC(N3CCC(C(=O)c4ccc(OC)cc4)CC3)C2=O)n1 (centres unmarked)    183
COc1ccc2c(c1)CC1(CCN(C3CCN(Cc4nc5c(c(=O)[nH]4)COCC5)C3=O)CC1)C2=O (centres unmarked)    43
COc1ccc(C(=O)C2CCN(C3CCN(Cc4nc(C)c(C)c(=O)[nH]4)C3=O)CC2)cc1 (centres unmarked)    43
COc1ccc(C(=O)C2CCN(C3CCN(Cc4nc5c(c(=O)[nH]4)COCC5)C3=O)CC2)cc1 (centres unmarked)    30
COc1ccc(C(=O)C2CCN(C3CCN(CC(=O)Nc4nnc5ccccn45)C3=O)CC2)cc1 (centres unmarked)    2630
COc1ccc(C(=O)C2CCN(C3CCN(Cc4nc(C)cc(=O)[nH]4)C3=O)CC2)cc1 (centres unmarked)    489

Jot down IC50 (Non-small lung cancer ABC-1 cells) of COc1ccc(C(=O)C2CCN(C3CCCN(Cc4nc5c(c(=O)[nH]4)COCC5)C3=O)CC2)cc1 (centres unmarked) .
99

----------
system: Axin2 protein; assay: Cellular ELISA assay for stabilizing the Axin2 protein in SW480 cells; type: cell-based; conditions: Homo sapiens, 24 hrs treatment, read-out: Axin AC50
measured attribute: AC50
Give the value; after it, write the unit.

Some solved entries appear below for comparison.
O=C(c1ccc(F)cc1)C1CCN(C2CCN(Cc3nc4c(c(=O)[nH]3)COCC4)C2=O)CC1 (centres unmarked)    257 nM
O=C(c1ccc(F)cc1)C1CCN([C@H]2CCN(Cc3nc4c(c(=O)[nH]3)COCC4)C2=O)CC1    132 nM
COc1ccc(C(=O)C2CCN(C3CCN(Cc4nc5sc(C)cc5c(=O)[nH]4)C3=O)CC2)cc1 (centres unmarked)    78 nM
COc1ccc(C(=O)C2CCN([C@@H]3CCN(Cc4nc5ccccc(=O)c5[nH]4)C3=O)CC2)cc1C    9 nM
COc1ccc(C(=O)C2CCN(C3CCN(Cc4nc5ccccc(=O)c5[nH]4)C3=O)CC2)cc1 (centres unmarked)    3.2 nM
COc1ccc(C(=O)C2CCN([C@H]3CCN(Cc4nc5ccccc(=O)c5[nH]4)C3=O)CC2)cc1    0.6 nM
COc1ccc(C(=O)C2CCN(C3CCN(Cc4nc(C)c(C)c(=O)[nH]4)C3=O)CC2)cc1 (centres unmarked)    21 nM
COc1ccc(C(=O)C2CCN([C@@H]3CCN(Cc4nc5c(c(=O)[nH]4)COCC5)C3=O)CC2)cc1    310 nM

Give AC50; test system Axin2 protein; compound COc1ccc2c(c1)CC1(CCN(C3CCN(Cc4nc5c(c(=O)[nH]4)COCC5)C3=O)CC1)C2=O (centres unmarked)
16 nM

Report value: AC50, system: Axin2 protein, compound: COc1ccc(C(=O)C2CCN(C3CCN(Cc4nc5c(cnn5C)c(=O)[nH]4)C3=O)CC2)cc1 (centres unmarked)
23 nM

Report measured AC50 on Axin2 protein; entry: COc1ccc(C(=O)C2CCN(C3CCN(Cc4nc5c(c(=O)[nH]4)COCC5)C3=O)CC2)cc1 (centres unmarked)
31.3 nM

----------
biological target: human tankyrase 1 PARP catalytic domain, TNKS1P (GST-tagged) (Homo sapiens (Human), UniProt O95271)
measured attribute: IC50
Form field: result (number plus unit)

Examples with their reported IC50 follow.
COc1ccc(C(=O)C2CCN(C3CCN(Cc4nccc(=O)[nH]4)C3=O)CC2)cc1 (stereo not drawn) [Example 22]    1.5 µM
COc1ccc(C(=O)C2CCN(C3CCN(Cc4ccc(Cl)c(C#N)c4)C3=O)CC2)cc1 (stereo not drawn) [Example 5]    0.036 µM

Answer with the recorded IC50 for the compound listed here: O=C(c1ccc(F)cc1)C1CCN([C@H]2CCN(Cc3nc4c(c(=O)[nH]3)COCC4)C2=O)CC1 [Example 11]
0.037 µM

----------
biological target: tankyrase 2 protein PARP domain, TNKS2P (GST-tagged) (Homo sapiens (Human), UniProt Q9H2K2)
Sequence (Q9H2K2 959-1164): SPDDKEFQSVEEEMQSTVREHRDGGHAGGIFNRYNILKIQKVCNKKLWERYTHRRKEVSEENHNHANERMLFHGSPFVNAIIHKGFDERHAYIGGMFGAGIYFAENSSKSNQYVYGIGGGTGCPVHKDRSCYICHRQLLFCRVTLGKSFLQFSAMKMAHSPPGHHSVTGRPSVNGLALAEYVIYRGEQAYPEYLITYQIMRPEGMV
measured attribute: IC50
Be sure to follow the number with its unit.

Record excerpt, results attached:
COc1ccc(C(=O)C2CCN(C3CCN(Cc4nccc(=O)[nH]4)C3=O)CC2)cc1 (centres unmarked) [Example 22]    764 nM
CCc1cc(=O)[nH]c(CN2CCC(N3CCC(C(=O)c4ccc(OC)cc4)CC3)C2=O)n1 (centres unmarked) [Example 24]    53 nM
O=C(c1ccc(Cl)cc1)C1CCN(C2CCN(Cc3nc4c(c(=O)[nH]3)COCC4)C2=O)CC1 (centres unmarked) [Example 9]    23 nM

Please report IC50 for the following compound: COc1ccc(C(=O)C2CCN(C3CCN(Cc4nc5ccsc5c(=O)[nH]4)C3=O)CC2)cc1 (centres unmarked) [Example 7]
83 nM

State its IC50 for this compound: O=C(c1ccc(F)cc1)C1CCN([C@@H]2CCN(Cc3nc4c(c(=O)[nH]3)COCC4)C2=O)CC1 [Example 12]
2120 nM

Look up and state reported IC50 for COc1ccc(C(=O)C2CCN(C3CCN(CC(=O)Nc4nnc5ccccn45)C3=O)CC2)cc1 (centres unmarked) [Example 35]
636 nM

Provide only the value of recorded IC50 for O=C(c1ccc(F)cc1)C1CCN([C@H]2CCN(Cc3nc4c(c(=O)[nH]3)COCC4)C2=O)CC1 [Example 11]
17 nM

Identify IC50 associated with the compound COc1ccc(C(=O)C2CCN([C@@H]3CCN(Cc4nc5c(c(=O)[nH]4)COCC5)C3=O)CC2)cc1C [Example 14]
206 nM

Please indicate IC50 recorded for COc1ccc(C(=O)C2CCN(C3CCCN(Cc4nc5c(c(=O)[nH]4)COCC5)C3=O)CC2)cc1 (centres unmarked) [Example 18]
15 nM

Specify IC50 for COc1ccc(C(=O)C2CCN([C@@H]3CCN(Cc4nc5ccccc(=O)c5[nH]4)C3=O)CC2)cc1C [Example 29] and stop.
112 nM

For the compound COc1ccc(C(=O)C2CCN(C3CCN(Cc4nc5c(c(=O)[nH]4)CCC5)C3=O)CC2)cc1 (centres unmarked) [Example 21] , give its reported IC50.
17 nM

----------
target: PARP2 (Mus musculus (Mouse), UniProt O88554)
Sequence (O88554 whole entry): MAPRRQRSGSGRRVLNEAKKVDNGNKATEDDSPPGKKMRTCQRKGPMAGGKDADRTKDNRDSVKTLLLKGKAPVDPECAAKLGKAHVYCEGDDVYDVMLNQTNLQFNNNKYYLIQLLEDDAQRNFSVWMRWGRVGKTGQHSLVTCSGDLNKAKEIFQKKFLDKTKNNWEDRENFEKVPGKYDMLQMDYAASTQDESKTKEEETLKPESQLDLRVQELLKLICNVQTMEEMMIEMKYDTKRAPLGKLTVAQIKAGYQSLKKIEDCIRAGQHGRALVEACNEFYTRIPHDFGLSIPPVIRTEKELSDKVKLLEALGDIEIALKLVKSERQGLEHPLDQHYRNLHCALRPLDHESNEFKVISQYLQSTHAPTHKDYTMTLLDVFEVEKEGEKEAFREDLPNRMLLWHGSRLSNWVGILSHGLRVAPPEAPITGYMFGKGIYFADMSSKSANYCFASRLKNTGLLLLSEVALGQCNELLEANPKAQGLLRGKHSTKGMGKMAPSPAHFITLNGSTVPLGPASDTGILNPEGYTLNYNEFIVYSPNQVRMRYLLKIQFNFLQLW
pIC50: −log10 of the molar value.
measured attribute: pIC50

# example entries with known answers
COc1ccc(C(=O)C2CCN(C3CCN(Cc4nc5c(cnn5C)c(=O)[nH]4)C3=O)CC2)cc1 (stereo not drawn)    < 4.72
CCc1cc(=O)[nH]c(CN2CCC(N3CCC(C(=O)c4ccc(OC)cc4)CC3)C2=O)n1 (stereo not drawn)    < 4.72

Give measured pIC50 for COc1ccc(C(=O)C2CCN(C3CCN(Cc4nc(C)c(C)c(=O)[nH]4)C3=O)CC2)cc1 (stereo not drawn) (PARP2 (Mus musculus (Mouse), UniProt O88554)).
< 4.72
